Where do the numbers come from? From patent US10787433B2.

Measured Fold increase for EAAT2 at indicated concentration (maximum activity), listed per entry for reference.
system: EAAT2; test: EAAT2 Cellular Assay: EAAT2 protein levels in PA-EAAT2 cells by Western blot; type: cell-based, human; settings: 10 μM (concentration that reaches maximum activity), 24 hr, relative to DMSO controls

COc1ccc(C(=O)Nc2ccc(-c3ccccn3)nn2)cc1 ... 2.1 ± 0.2 (10 μM) fold
CNC(=O)COc1ccc(-c2ccccn2)nn1 [drawing 130] ... 1.8 ± 0.1 (10 μM) fold
NC(=O)COc1ccc(-c2ccccn2)nn1 ... 1.8 ± 0.2 (10 μM) fold

Problem: Read the entry c1ccc(CNc2ccc(-c3ccccn3)nn2)cc1 and write its reported Fold increase for EAAT2 at indicated concentration (maximum activity).
Result: 3.1 ± 0.3 (10 μM) fold
